- system-name: PD-1
- assay-method-text: competition binding, 2nd experiment; rank among the clones; competitor not given
metric-name: Competition Binding, 2nd exp. (ranking)
Give bare numbers.

Worked set:
Clone No. 1 (antibody, human IgG4 S228P, kappa, V domains shown) VH: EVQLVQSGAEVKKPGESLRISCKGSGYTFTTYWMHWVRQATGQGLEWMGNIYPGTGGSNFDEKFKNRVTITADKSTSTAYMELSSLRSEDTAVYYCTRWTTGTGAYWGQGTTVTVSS VL: EIVLTQSPATLSLSPGERATLSCKSSQSLLDSGNQKNFLTWYQQKPGQAPRLLIYWASTRESGVPSRFSGSGSGTEFTLTISSLQPDDFATYYCQNDYSYPYTFGQGTKVEIKR
2
Clone No. 12 (antibody, human IgG4 S228P, kappa, V domains shown) VH: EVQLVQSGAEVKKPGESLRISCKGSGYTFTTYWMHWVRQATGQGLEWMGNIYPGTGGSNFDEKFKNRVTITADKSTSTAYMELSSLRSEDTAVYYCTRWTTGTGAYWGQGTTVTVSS VL: DIQMTQSPSSLSASVGDRVTITCKSSQSLLDSGNQKNFLTWYLQKPGQSPQLLIYWASTRESGVPSRFSGSGSGTDFTFTISSLEAEDAATYYCQNDYSYPYTFGQGTKVEIKR
16
Clone No. 16 (antibody, human IgG4 S228P, kappa, V domains shown) VH: EVQLVQSGAEVKKPGESLRISCKGSGYTFTTYWMHWVRQAPGQGLEWMGNIYPGTGGSNFDEKFKNRFTISRDNSKNTLYLQMNSLRAEDTAVYYCTRWTTGTGAYWGQGTTVTVSS VL: EIVLTQSPDFQSVTPKEKVTITCKSSQSLLDSGNQKNFLTWYQQKPGQAPRLLIYWASTRESGVPSRFSGSGSGTDFTFTISSLEAEDAATYYCQNDYSYPYTFGQGTKVEIKR
15

Query string: Please look at this binder and report its Competition Binding, 2nd exp. (ranking): Clone No. 3 (antibody, human IgG4 S228P, kappa, V domains shown) VH: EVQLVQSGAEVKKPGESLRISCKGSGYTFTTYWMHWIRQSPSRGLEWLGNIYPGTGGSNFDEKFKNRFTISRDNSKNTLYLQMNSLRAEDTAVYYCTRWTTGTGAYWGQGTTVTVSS VL: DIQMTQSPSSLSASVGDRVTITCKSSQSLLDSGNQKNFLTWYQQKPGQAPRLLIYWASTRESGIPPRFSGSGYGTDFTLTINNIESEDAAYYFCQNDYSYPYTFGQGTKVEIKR
Result string: 14
